meta.source: the supplement of paper PMC9170038

# Tested on: MS2 coat protein
# method: apparent KD of MS2 coat protein; designed switch direction (-1 OFF switch, 1 ON switch): -1; higher = weaker reporter binding
# condition_notes: Eterna round: R95; input ligand: microRNA oligo, concentration not stated

polymer_sequence: CCUCUACAUGAGGAUCACCCAUGUGAGGAUAUCUCGGAGCAGCCACUUAAGGCACUCCAGAGAAGGCACGUGUA [Oreresbe] (puzzle: Exclusion 1)
assayed_target: MS2 coat protein
apparent KD of MS2 coat protein (nM): 16.6
--
polymer_sequence: UUUAUGUCAGGAUAUGAUUAGAUCUACUUCGGUAGAUCUAAUCAGAAGGGACAUGAGGAUCACCCAUGUUUUUU [Ex4 - 3 - 16] (puzzle: Exclusion 4)
assayed_target: MS2 coat protein
apparent KD of MS2 coat protein (nM): 41.6
--
polymer_sequence: AGGUAGCAAGGAUAUACAACUUUGGGCACUGCCUCUUGGAGACAUGAGGAUCACCCAUGUAGAAGGUGCAGGCC [Tibiarusor] (puzzle: Exclusion 2)
assayed_target: MS2 coat protein
apparent KD of MS2 coat protein (nM): 11.7
--
polymer_sequence: AGAGCACAUGAGGAUCACCCAUGUCAGGAUAUGCAAGAAAGAAAGAAAGAAAGAAAGAGCAGAAGGGACAAAUA [?solved?] (puzzle: Exclusion 1)
assayed_target: MS2 coat protein
apparent KD of MS2 coat protein (nM): 34.2
--
polymer_sequence: GAGGAGCAAGGAUAUACGAGGAUAGGGAAGUGAGGAGAGUGACAUGAGGAUCACCCAUGUAGAAGGUGCAAGGG [JR_Exclu2_Sub094] (puzzle: Exclusion 2)
assayed_target: MS2 coat protein
apparent KD of MS2 coat protein (nM): 89.4
--
polymer_sequence: AGGUGACAUGAGGAUCACCCAUGUAAGGAUAUACGGUUAGUGGAGAGAGGGAAGAGAGGUAGAAGGUACGGAGC [JR_Exclu1_Sub058] (puzzle: Exclusion 1)
assayed_target: MS2 coat protein
apparent KD of MS2 coat protein (nM): 227
--
polymer_sequence: UGGGUUCUCCAUAGAAGUAACAUGAGGAUCACCCAUGUAGGGCAAGUUUUUUGUUCGUCAUAGGCUGUGGAUUUGGA [JR_SV3TOV1_Sub020] (puzzle: Sensor v3, turn-off variant 1)
assayed_target: MS2 coat protein
apparent KD of MS2 coat protein (nM): 170
--
polymer_sequence: AAGGAUAGAGGAUAUACAUAGAUACAGAUUCAUGUAAUCCUACAUGAGGAUCACCCAUGUAGAAGGCUAUCCUA [Fiskers Ex 2 - 15] (puzzle: Exclusion 2)
assayed_target: MS2 coat protein
apparent KD of MS2 coat protein (nM): 14.5
--
polymer_sequence: CGGAGCGUGGGUAGGUGCAACAUGAGGAUCACCCAUGUCUCACAAGCUUUUUGCUCAUCUUAUUGUACCUUGGUGCU [Sensor v3, turn-off variant 1 (MOD of JL v.2)] (puzzle: Sensor v3, turn-off variant 1)
assayed_target: MS2 coat protein
apparent KD of MS2 coat protein (nM): 12.3
--
polymer_sequence: CUAUGUUAGCAGGAUAUGCCAUUAUUCUUUUUCGCAGAAGGGCUUACAUGAGGAUCACCCAUGUUACAUUUCUU [JR_E6_Sub086] (puzzle: Exclusion 6)
assayed_target: MS2 coat protein
apparent KD of MS2 coat protein (nM): 16.7
--
polymer_sequence: ACUAGCUUUUUGCAUAGUAGGUUUGGUGCUUCGUAUGCAACAUGAGGAUCACCCAUGUAUUACUGAUGUCGUCGUUU [JR_SV3TOV2_Sub092] (puzzle: Sensor v3, turn-off variant 2)
assayed_target: MS2 coat protein
apparent KD of MS2 coat protein (nM): 48.2
--
polymer_sequence: GAUGUGGGUUUUCAGAGUAACAUGAGGAUCACCCAUGUAGAAGUUGGAGGGAUCAAGCUUUUUGGUCGUCAUAUGUG [JR_SV3TOV1_Sub051] (puzzle: Sensor v3, turn-off variant 1)
assayed_target: MS2 coat protein
apparent KD of MS2 coat protein (nM): 511
--
polymer_sequence: UAUUAUUGCAAGGAUAUGCUUUUUAUUUCUUUUGCAGAAGGUGCAACAUGAGGAUCACCCAUGUUUCCGGGUAU [JR_E6_Sub033] (puzzle: Exclusion 6)
assayed_target: MS2 coat protein
apparent KD of MS2 coat protein (nM): 20.4
--
polymer_sequence: CUGGUCCGAGGAUAUAUUAAGUGAUACAUGAGGAUCACCCAUGUAAUUUGAUGGAUAUAAAUAGAAGGCGGACUAG [Mat - Exclusion 5 - JL mod - D43] (puzzle: Exclusion 5)
assayed_target: MS2 coat protein
apparent KD of MS2 coat protein (nM): 37.1
--
polymer_sequence: GUUAGUUAAGGAUAUACAGGGAGCCGCGGCGUCUCGCCGCAACAUGAGGAUCACCCAUGUAGAAGGUGGCCAUU [JL ViennaUCT Enbibi mod 2] (puzzle: Exclusion 2)
assayed_target: MS2 coat protein
apparent KD of MS2 coat protein (nM): 101
--
polymer_sequence: GGUCCACAUGAGGAUCACCCAUGUUAGGAUAUCUCGUCCGAGCAGUUAUGGGCCGGGCAGAGAAGGAAUGUGAA [Orbibibi] (puzzle: Exclusion 1)
assayed_target: MS2 coat protein
apparent KD of MS2 coat protein (nM): 25.7
--
polymer_sequence: AAAAUGGUCUAGGAUAUGACAAAUCUGAUCACGUCAGAAGGAGACACAUGAGGAUCACCCAUGUGGGUGCGAAA [Qureenan] (puzzle: Exclusion 6)
assayed_target: MS2 coat protein
apparent KD of MS2 coat protein (nM): 44.4
--
polymer_sequence: GAUUGAGAGCAGGAUAUCUUAGAAAUGUAUUAAAGAGAAGGGCUCACAUGAGGAUCACCCAUGUGGUCCUAGAU [JL Dibiri mod 16] (puzzle: Exclusion 6)
assayed_target: MS2 coat protein
apparent KD of MS2 coat protein (nM): 20.8
--
polymer_sequence: GUGGUACAUGAGGAUCACCCAUGUUAGGAUAUCGCGUGGUUUUUUGCGGCCGCGCGCGCGAGAAGGGACGUCUU (puzzle: Exclusion 1)
assayed_target: MS2 coat protein
apparent KD of MS2 coat protein (nM): 29.3
--
polymer_sequence: UUUAAUUUUUUUUUUUUACAAGCUUUUUGCUCGUCUUAUACAUGAGGAUCACCCAUGUGGGUGGGAAGUAAAUUAUC [JMF 56] (puzzle: Sensor v3, turn-off variant 2)
assayed_target: MS2 coat protein
apparent KD of MS2 coat protein (nM): 12.6
--
polymer_sequence: UAUCGGCGGACCGAGGCUUUUUGCUCGUCUUAUGCUAUGACAUGAGGAUCACCCAUGUGGUGGUGGUCCGUUGUAGU [JL ViennaUCT Bitein mod 10] (puzzle: Sensor v3, turn-off variant 2)
assayed_target: MS2 coat protein
apparent KD of MS2 coat protein (nM): 12.6
